Values compiled from patent US9216986B1.

Molecular target: PDE10A enzyme (Homo sapiens (Human), UniProt Q9Y233)
Sequence (Q9Y233 716-1055): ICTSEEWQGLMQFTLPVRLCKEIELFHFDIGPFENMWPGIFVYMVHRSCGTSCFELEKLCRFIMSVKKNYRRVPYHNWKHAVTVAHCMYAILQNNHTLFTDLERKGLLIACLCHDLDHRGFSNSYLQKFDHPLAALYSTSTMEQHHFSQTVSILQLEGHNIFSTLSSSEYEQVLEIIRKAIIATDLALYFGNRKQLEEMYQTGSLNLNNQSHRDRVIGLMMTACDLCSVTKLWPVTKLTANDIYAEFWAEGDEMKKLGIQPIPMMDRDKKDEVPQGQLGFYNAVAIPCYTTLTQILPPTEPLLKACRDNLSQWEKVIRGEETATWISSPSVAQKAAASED
readout kind: IC50 (nM)

[P] Cc1ncc(C)n2nc(/C=C/c3ccc4cc(OC(F)(F)F)ccc4n3)nc12
[Q] Cc1ncc(C)n2nc(CCc3ccc4ccc(C(F)(F)F)cc4n3)nc12
Pick one: P or Q . Which one has the lower reported IC50? When you have decided, please share the label of that item.
Q

* * *

Molecular target: PDE10A enzyme (Homo sapiens (Human), UniProt Q9Y233)
Experiment: PDE10A inhibition assay
Format: biochemical
Conditions: tritium labeled cAMP 5 nM
pIC50: −log10 of the molar value.
readout kind: pIC50

# smiles code, pIC50
records = [
    ("COc1ccc(C)n2nc(CCc3ccc4ccccc4n3)nc12", 7.92),
    ("Cc1ncc(C)n2nc(CCc3cc(O)c4ccc(F)cc4n3)nc12", 6.30),
    ("COc1cccc2nc(/C=C/c3nc4c(C)ncc(C)n4n3)ccc12", 7.72),
    ("Cc1ncc(C)n2nc(CCc3ccc4c(F)cc(F)cc4n3)nc12", 6.96),
    ("COc1ccc(C)n2nc(CCc3ccc4cc(F)ccc4n3)nc12", 7.47),
]

[1] Cc1cnc(C)n2nc(CCc3ccc4cc(C(C)C)ccc4n3)nc12
[2] Cc1ncc(C)n2nc(CCc3ccc4c(F)cccc4n3)nc12
[3] Cc1ncc(C)n2nc(CCc3ccc4c(Cl)cc(Cl)cc4n3)nc12
Could you please order the items by pIC50, going from the lowest number to the highest? Output the labels ranked as instructed.
2, 1, 3
